- Tested on: Plasmodium berghei
- experiment: Luciferase/luciferin-expressing antifolate-resistant parasites were used to infect a culture of HepG2 cells that were pre-incubated with compounds. Infected hepatocytes emit light due to the luciferase reaction. Assay results are presented as the percent inhibition of light emission compared to control. […]
- Assay type: functional
- condition_label: sporozoite, FFLUC_HILL_SLOPE 9.15, FFLUC_R_SQUARED 0.521, read-out: LUCIFERASE INFECTION ASSAY - IC50
reported_metric: IC50

Quick note, IC50 for "CC(C)(C)c1cc(/C=C2\C=c3ccccc3=C2O)cc(C(C)(C)C)c1O" landed at > 9.47 µM

* * *

What IC90 was measured for each of the following?
- Tested on: Plasmodium berghei
- experiment: Luciferase/luciferin-expressing antifolate-resistant parasites were used to infect a culture of HepG2 cells that were pre-incubated with compounds. Infected hepatocytes emit light due to the luciferase reaction. Assay results are presented as the percent inhibition of light emission compared to control. […]
- Format: functional
- condition_label: sporozoite, read-out: LUCIFERASE INFECTION ASSAY - IC90

[
  {
    "compound": "CCOc1cc(CN(CC)CC(=O)Nc2c(F)cccc2F)ccc1OCc1cccs1",
    "test_result": "> 10 µM"
  },
  {
    "compound": "O=C(NC1CC1)c1ccc(-c2cnc3cnc(-c4cnn(Cc5ccccc5)c4)cn23)cc1",
    "test_result": "> 7.59 µM"
  },
  {
    "compound": "O=C(NNc1ccc(I)cc1)c1cc(Cl)cc(Cl)c1",
    "test_result": "2.86 µM"
  },
  {
    "compound": "CCN(CC)S(=O)(=O)c1ccc(N/N=C2/C=CC(=O)c3ncccc32)cc1",
    "test_result": "> 10 µM"
  },
  {
    "compound": "CC(C)(C)S(=O)(=O)/C(C#N)=C/Nc1ccc(OC(F)(F)F)cc1",
    "test_result": "> 9.47 µM"
  },
  {
    "compound": "Cc1c(Cl)cccc1N=C(SCC(=O)N1CCCCCC1)C(C#N)c1nc2ccccc2s1 (stereo not drawn)",
    "test_result": "> 10 µM"
  }
]

Need IC90 for each of these compounds.
1. Cn1c(-c2cc3c(s2)CCC(C(C)(C)C)C3)n[nH]c1=S (stereo not drawn)
2. O=S(=O)(Nc1ccc(C(F)(F)F)cc1)c1ccc(S(=O)(=O)c2ncc(C(F)(F)F)cc2Cl)s1
3. O=C(Nc1ccc(Cl)c(Cl)c1)Nc1ccc2c(c1)OCCO2
4. Cc1cc(C)n(-c2nc(-c3ccccc3)cc(N(C)CCO)n2)n1

Response:
1. 7.62 µM
2. > 5.99 µM
3. > 9.73 µM
4. 3.45 µM

Need IC90 for each of these compounds.
1. Cc1ccc(-c2noc(CCCN3CCN(c4cnn(-c5ccccc5)c(=O)c4Cl)CC3)n2)cc1
2. COC(=O)c1c(-c2ccccc2Cl)noc1/C=C/c1c[nH]c(=O)c2c(-c3ccccc3Cl)noc12
3. O=S(=O)(Nc1cc(F)c(Br)cc1F)c1cc(C(F)(F)F)cc(C(F)(F)F)c1

Response:
5.31 µM
> 6.49 µM
> 6.82 µM

Need IC90 for each of these compounds.
1. Nc1cc(Cl)ccc1Oc1ccc2ccccc2c1
2. CCCn1c(N)c(C(=O)CN(C)Cc2cccc(Cl)c2Cl)c(=O)[nH]c1=O
3. CC(C)CNC(=O)NC(=O)COC(=O)c1c2c(nc3ccccc13)CCCCC2
4. COc1ccc(-c2cnc3ccc(Cc4ccccc4)nn23)cc1OC
5. C=CCc1ccccc1OCC(O)CNC(C)(C)CC(C)(C)C (stereo not drawn)
6. CN1CCN(c2ccc(-c3cn4c(-c5ccc(O)cc5)cnc4cn3)cc2)CC1

Response:
1. > 10 µM
2. 3.38 µM
3. 7.96 µM
4. 3.83 µM
5. 4.91 µM
6. > 8.56 µM

From: ChEMBL document CHEMBL4483862
